target: equine serum BChE (Equus caballus); construct: human erythrocyte AChE, equine serum BChE, and porcine liver CES were used; purchased Sigma-Aldrich; host or cells: equine serum (tissue-derived); assay: biochemical; conditions: mean ± SEM, n = 3, read-out: Inhibitory activity against BChE, IC50
Sequence (P81908 whole entry): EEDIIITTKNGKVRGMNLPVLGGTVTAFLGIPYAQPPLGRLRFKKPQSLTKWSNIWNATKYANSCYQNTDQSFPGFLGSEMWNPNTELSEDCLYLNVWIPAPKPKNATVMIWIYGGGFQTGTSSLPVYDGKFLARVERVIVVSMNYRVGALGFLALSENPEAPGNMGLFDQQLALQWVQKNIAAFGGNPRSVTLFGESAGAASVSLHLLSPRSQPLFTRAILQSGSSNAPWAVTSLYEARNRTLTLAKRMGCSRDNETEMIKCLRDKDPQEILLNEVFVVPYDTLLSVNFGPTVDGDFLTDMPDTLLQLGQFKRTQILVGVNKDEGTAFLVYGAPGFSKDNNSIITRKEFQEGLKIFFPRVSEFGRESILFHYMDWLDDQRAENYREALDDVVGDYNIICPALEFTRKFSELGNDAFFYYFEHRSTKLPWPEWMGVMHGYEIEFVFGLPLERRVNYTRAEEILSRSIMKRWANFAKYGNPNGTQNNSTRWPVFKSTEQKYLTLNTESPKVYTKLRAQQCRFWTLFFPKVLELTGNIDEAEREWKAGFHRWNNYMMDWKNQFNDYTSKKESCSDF
Measure name: IC50 (nM)

Oc1ccccc1/C=N/CCCCCCCCNc1c2c(nc3ccccc13)CCCC2 [10c] :: 15.6
COc1cc(F)c(F)cc1C(=O)NCCCCCCNc1c2c(nc3ccccc13)CCCC2 [8b] :: 70.2
Oc1ccccc1/C=N/CCCCCCNc1c2c(nc3ccccc13)CCCC2 [10b] :: 35.4
O=C(NCCCCCCNc1c2c(nc3ccccc13)CCCC2)c1ccccc1O [5b] :: 11.9
COc1cc(F)c(F)cc1C(=O)NCCCCCCCCNc1c2c(nc3ccccc13)CCCC2 [8c] :: 31.7

====

Target: EeAChE PAS (Electrophorus electricus)
Construct: The enzyme was electric eel AChE (EeAChE type VI-S, lyophilized powder, Sigma-Aldrich); purchased Sigma-Aldrich type VI-S; host or cells: electric eel (tissue-derived)
Format: binding
Conditions: compound 20 µM; EeAChE 7 µM; propidium iodide 8 µM
Method: This method is widely used as a screening approach to assess the potential ability of compounds to block AChE-induced β-amyloid aggregation. This is because when the compounds bind to the AChE PAS, they prevent the binding of β-amyloid, thereby inhibiting its aggregation. […] Propidium iodide (final concentration 8 μM) was then added for a further 15 min incubation, and the fluorescence spectrum was taken (530 nm excitation and 600 nm emission) using a FLUOStar Optima microplate reader. […]
Measure name: Propidium Displacement from EeAChE PAS (%)

COc1ccccc1C(=O)NCCCCCCNc1c2c(nc3ccccc13)CCCC2 :: 12.5
O=C(NCCCCCCNc1c2c(nc3ccccc13)CCCC2)c1ccccc1O :: 12.6
O=C(NCCCCCCCCNc1c2c(nc3ccccc13)CCCC2)c1cc(F)c(F)cc1O :: 13.6
O=C(NCCCCCCCCNc1c2c(nc3ccccc13)CCCC2)c1ccccc1O :: 14.2
O=C(NCCCCCCNc1c2c(nc3ccccc13)CCCC2)c1cc(F)c(F)cc1O :: 12.2

====

target: β-amyloid (1–42) (Aβ42) (Homo sapiens, UniProt P05067); assay: Inhibition of Aβ42 self-aggregation (thioflavin T); format: biochemical; details: Aβ42 50 µM; compound 100 µM; 24 h, 37 °C; thioflavin T; read-out: Inhibition of Aβ42 Self-Aggregation
Sequence (P05067 672-713 limits assumed): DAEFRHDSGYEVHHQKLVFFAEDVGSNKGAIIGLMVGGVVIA
Measure name: inhibition at 100 µM (%)

COc1ccccc1C(=O)NCCCCCCCCNc1c2c(nc3ccccc13)CCCC2 :: 55.6
Oc1ccccc1C=NCCCCNc1c2c(nc3ccccc13)CCCC2 [10a] :: 57.9
COc1ccccc1C(=O)NCCCCCCNc1c2c(nc3ccccc13)CCCC2 :: 30.8
COc1cc(F)c(F)cc1C(=O)NCCCCCCNc1c2c(nc3ccccc13)CCCC2 :: 29.7
O=C(NCCCCNc1c2c(nc3ccccc13)CCCC2)c1ccccc1O :: 20.7

====

Biological target: EeAChE PAS (Electrophorus electricus, UniProt O42275)
Construct: The enzyme was electric eel AChE (EeAChE type VI-S, lyophilized powder, Sigma-Aldrich); purchased Sigma-Aldrich type VI-S; host or cells: electric eel (tissue-derived)
Sequence (O42275 24-633): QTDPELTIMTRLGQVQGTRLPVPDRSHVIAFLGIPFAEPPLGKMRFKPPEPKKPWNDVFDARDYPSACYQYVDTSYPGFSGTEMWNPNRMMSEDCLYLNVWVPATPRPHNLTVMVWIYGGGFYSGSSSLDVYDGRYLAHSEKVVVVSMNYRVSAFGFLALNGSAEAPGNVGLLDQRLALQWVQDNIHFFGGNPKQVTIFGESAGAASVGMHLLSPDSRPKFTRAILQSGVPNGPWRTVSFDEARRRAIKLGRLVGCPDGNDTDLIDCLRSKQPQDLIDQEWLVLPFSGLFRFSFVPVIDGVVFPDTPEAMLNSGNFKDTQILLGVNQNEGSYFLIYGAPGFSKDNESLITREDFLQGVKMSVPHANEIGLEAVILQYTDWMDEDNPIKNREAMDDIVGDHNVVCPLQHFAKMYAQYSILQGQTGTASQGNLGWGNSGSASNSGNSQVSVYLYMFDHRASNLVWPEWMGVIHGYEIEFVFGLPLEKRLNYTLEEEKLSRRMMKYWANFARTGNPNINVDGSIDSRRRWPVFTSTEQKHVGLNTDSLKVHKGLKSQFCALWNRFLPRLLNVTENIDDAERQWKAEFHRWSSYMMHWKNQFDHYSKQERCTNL
Assay type: binding
Details: compound 20 µM; EeAChE 7 µM; propidium iodide 8 µM
Procedure: This method is widely used as a screening approach to assess the potential ability of compounds to block AChE-induced β-amyloid aggregation. This is because when the compounds bind to the AChE PAS, they prevent the binding of β-amyloid, thereby inhibiting its aggregation. […] Propidium iodide (final concentration 8 μM) was then added for a further 15 min incubation, and the fluorescence spectrum was taken (530 nm excitation and 600 nm emission) using a FLUOStar Optima microplate reader. […]
Each entry below carries its recorded Propidium Displacement from EeAChE PAS.
Measure name: Propidium Displacement from EeAChE PAS (%)

COc1ccccc1C(=O)NCCCCNc1c2c(nc3ccccc13)CCCC2 :: 10.2
COc1ccccc1C(=O)NCCCCCCCCNc1c2c(nc3ccccc13)CCCC2 :: 14.1
Oc1ccccc1C=NCCCCNc1c2c(nc3ccccc13)CCCC2 [10a] :: 18.6
COc1cc(F)c(F)cc1C(=O)NCCCCCCNc1c2c(nc3ccccc13)CCCC2 :: 13.8
O=C(NCCCCNc1c2c(nc3ccccc13)CCCC2)c1ccccc1O :: 11.8
